- assaySystem: Neutrophil cytosol factor 1 (Homo sapiens) (UniProt P14598)
- Sequence (P14598 whole entry, looked up): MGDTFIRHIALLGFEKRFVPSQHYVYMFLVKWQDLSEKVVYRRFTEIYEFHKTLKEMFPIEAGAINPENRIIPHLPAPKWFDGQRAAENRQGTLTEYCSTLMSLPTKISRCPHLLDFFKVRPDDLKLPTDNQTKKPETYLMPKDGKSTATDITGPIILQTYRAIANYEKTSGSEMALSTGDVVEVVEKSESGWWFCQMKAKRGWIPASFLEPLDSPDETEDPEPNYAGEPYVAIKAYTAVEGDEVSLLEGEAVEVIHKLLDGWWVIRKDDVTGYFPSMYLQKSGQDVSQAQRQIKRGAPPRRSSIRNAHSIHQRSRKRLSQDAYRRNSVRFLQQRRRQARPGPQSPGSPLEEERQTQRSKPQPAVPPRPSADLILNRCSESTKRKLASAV
- assayName: blockers of p47phox binding to p22phox – biochemical, uHTS, NADPH oxidase regulatory subunit, primary screen (AID 1274);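 also: 0% = p47phox with labelled peptide and 100% = labelled peptide alone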
- conditionsUsed: p47phox/p22phox peptide binding, fluorescence polarization, 2 h; at 24.7 µM; hits give high values
About 1,100 (0.5%) of roughly 220,000 compounds were called active. The entries come from a sample that favours actives as a whole.
Listed below: inhibition values for each entry.
// return numeric value only (unit: %, not printed)

Use these answered entries as a reference point.
> print(dat)
                                   compound  assayendpoint  endpointunit  numericreadout
1                       NNc1nc2c(Cl)cccc2s1     inhibition             %           -5.57
2  O=C(c1cccc(C(=O)N2CCc3ccccc32)n1)N1CCc2ccccc21     inhibition             %            45.6
3  CC(=O)NC(CC(=O)Nc1nccs1)c1ccccc1 (stereo not drawn)     inhibition             %            1.69

[Q] Look up and state reported inhibition for Oc1ccc(N2CCN(C(=S)NCc3ccccc3)CC2)cc1
[A] -4.47

[Q] Quick one: give measured inhibition for COc1ccc(Nc2nc(N)nc(CSC(=S)N3CCC(C)CC3)n2)cc1
[A] -5.99

[Q] Consider the compound Cc1nc2nc(SCC(=O)NCc3ccco3)nn2c(C)c1Cc1ccccc1 . State its measured inhibition.
[A] 39.5

[Q] Dear colleague, please send me the reported inhibition for CCN(CC)CCn1cnc2c1c(=O)n(CCOC(=O)c1cc(OC)c(OC)c(OC)c1)c(=O)n2C when you can.
[A] -17

[Q] Identify measured inhibition corresponding to N=C(N)SCc1cccc2ccccc12
[A] -8.51

[Q] Return reported inhibition. Input compound: O=C(COc1ccc2oc3c(c2c1)CCCC3)Nc1ccccn1
[A] 178

[Q] Give recorded inhibition. CCn1c(SCC(=O)N/N=C/c2ccncc2)nc2ccccc21
[A] 3.59

[Q] Fill in inhibition for record O=C(Nc1ccccc1)O/N=C1/CCCc2occc21
[A] -10.7

[Q] Return inhibition (reported value) for this compound: N#C/C(=C/c1ccc(N2CCCCC2)o1)C(=O)NCCc1c[nH]c2ccccc12
[A] 41.9

[Q] Give inhibition for the following compound: Cc1ccc(SCC(=O)NC(=O)NCc2ccco2)c(C)c1
[A] -8.32

[Q] Given the compound Cc1cc(C)cc(OCC(=O)Nc2ccc(S(=O)(=O)Nc3ccccn3)cc2)c1 , write its reported inhibition.
[A] -4.16
